Data credit: the supplement of paper PMC10065799

# systemUnderTest: Hck (UniProt P08631)
# Sequence (P08631 whole entry, looked up): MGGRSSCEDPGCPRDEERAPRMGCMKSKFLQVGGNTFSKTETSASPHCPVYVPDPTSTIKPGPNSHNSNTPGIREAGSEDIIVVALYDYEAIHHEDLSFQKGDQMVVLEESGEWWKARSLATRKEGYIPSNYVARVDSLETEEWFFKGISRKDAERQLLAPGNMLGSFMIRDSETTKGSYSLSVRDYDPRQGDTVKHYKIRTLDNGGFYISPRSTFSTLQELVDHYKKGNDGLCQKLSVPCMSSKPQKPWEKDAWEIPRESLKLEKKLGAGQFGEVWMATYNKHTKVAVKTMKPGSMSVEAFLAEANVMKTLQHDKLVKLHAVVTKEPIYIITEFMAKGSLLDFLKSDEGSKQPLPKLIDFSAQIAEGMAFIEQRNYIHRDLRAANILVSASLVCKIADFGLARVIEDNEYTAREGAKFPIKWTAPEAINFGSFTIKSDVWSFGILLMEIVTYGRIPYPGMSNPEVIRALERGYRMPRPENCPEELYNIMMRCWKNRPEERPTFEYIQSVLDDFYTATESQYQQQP
# protocolDescription: phosphorylation enrichment, bacterial display (enrichment ratio); higher = better substrate or ligand; peptides without Tyr show the background
phosphorylation enrichment of 0.5 or higher: fulfilled. Under 0.5: not fulfilled.

Hi, just wondering whether IKELTYQTEED [MYH7_Y1852] shows phosphorylation enrichment of 0.5 or higher. fulfilled

Queued: EVESPYEVRDF [GIGYF2_Y1168_H1171R_YF] fulfilled

One more sequence: FTGDIYSNSNL [LZTR1_Y141_YF] fulfilled

Proceed to AKKMKYFEGVS [PRKDC_Y682_I680M] not fulfilled

What would you report for PAIERYVVVCK [RHO_Y136_L131P] ? fulfilled

Also SIKDKHVTALF [KCNH2_Y611_Y611H_YF] ? not fulfilled

Do the same for ITVCDYTNPCT [MYD88_Y276] please not fulfilled

Would you mind doing ARGTRYRFVSQ [UCN3_Y95_YF] as well? fulfilled

* * *

Consider the following sequences; for each one, report its phosphorylation enrichment.
# systemUnderTest: FGFR1 (UniProt P11362)
# Sequence (P11362 whole entry, looked up): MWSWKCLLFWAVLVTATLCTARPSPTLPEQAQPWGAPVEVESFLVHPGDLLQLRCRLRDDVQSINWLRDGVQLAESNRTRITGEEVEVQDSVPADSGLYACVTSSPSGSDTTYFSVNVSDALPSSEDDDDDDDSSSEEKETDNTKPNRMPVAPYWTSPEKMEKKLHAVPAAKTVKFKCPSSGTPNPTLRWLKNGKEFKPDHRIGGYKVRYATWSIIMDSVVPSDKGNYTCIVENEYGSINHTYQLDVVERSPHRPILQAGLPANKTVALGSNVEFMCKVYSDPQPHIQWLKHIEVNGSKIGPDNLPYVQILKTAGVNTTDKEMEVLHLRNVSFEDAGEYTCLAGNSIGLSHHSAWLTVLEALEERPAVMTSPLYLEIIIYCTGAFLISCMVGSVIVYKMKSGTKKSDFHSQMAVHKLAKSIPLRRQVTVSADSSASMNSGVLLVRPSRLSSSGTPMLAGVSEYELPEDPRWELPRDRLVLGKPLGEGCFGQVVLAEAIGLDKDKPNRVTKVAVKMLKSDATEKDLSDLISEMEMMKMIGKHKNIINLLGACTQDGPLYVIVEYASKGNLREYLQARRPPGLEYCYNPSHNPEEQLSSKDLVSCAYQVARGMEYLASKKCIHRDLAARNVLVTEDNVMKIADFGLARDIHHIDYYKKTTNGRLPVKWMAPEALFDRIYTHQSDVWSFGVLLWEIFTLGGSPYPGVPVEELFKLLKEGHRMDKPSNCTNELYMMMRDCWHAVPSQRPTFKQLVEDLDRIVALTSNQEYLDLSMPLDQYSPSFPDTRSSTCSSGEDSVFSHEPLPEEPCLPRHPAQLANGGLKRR
# protocolDescription: phosphorylation enrichment, bacterial display (enrichment ratio); higher = better substrate or ligand; peptides without Tyr show the background
// print number alone

Fill in the blank: the reported phosphorylation enrichment of KSLFHYRQFSA [CPS1_Y1491_YF] is ____. 0.546

# repeat for NSNAAYEESHF [LRIF1_Y714_Q716E] 0.443

What do we get for IKIMGYFIRTI [IDS_Y490_S491F] ? 0.479

Likewise for RAILDYIASKF [GSTA3_Y74_N73D_YF] ? 0.567

Now this one: RELGEYPLAEF [ALDH1A3_Y492_A493P_YF] 0.709

// repeat for DLGIQYKALKP [CTNNA1_Y177] and report 0.507

Try LQLLGYRPVFS [CHST6_Y358_YF] next. 0.535

Quick one: ISITPYPAILH [IFT80_Y588] 0.433

Try HELYVYKSDEN [DOCK3_Y548_C550S] next. 0.684

# repeat for EFFDGYWGFSV [ITGA2B_Y265_YF] 6.3

Same thing, different sequence: WQQQSYLASGI [CTNNB1_Y30_D32A] 0.463

Could you do the same for FTTIHYNFMCN [TP53_Y234_C229Y_YF] , please? 0.682

Cool, now QPAGNYSLSSV [ARFGAP3_Y473] 0.414

Item: EEKSCYILHSS [PATJ_Y783_E780K] 0.755

* * *

# systemUnderTest: Grb2 SH2 (UniProt P62993)
# Sequence (P62993 whole entry, looked up): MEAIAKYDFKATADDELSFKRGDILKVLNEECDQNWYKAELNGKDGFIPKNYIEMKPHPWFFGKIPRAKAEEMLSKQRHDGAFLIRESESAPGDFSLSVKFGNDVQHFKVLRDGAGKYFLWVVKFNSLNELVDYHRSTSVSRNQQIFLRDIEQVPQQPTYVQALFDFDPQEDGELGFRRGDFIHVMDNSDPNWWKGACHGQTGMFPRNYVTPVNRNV
# protocolDescription: SH2 binding enrichment of the phosphorylated peptide, bacterial display (enrichment ratio); higher = better substrate or ligand; peptides without Tyr show the background
Please respond with reported SH2 binding enrichment for every item in the list.
The answer should be a number; do not append a unit.

Form field: reported SH2 binding enrichment of RWHEGYRQTPK [CD44_Y412] 1.47

Next sequence up: CPSLLYSPVSS [CAMKK2_Y128_P127L] 0.784

Please give the result for RAILDYIASKF [GSTA3_Y74_N73D_YF] too. 1.08

Record: GHNNVYISEHV [GRIN2A_Y1423_D1421N] 0.915

Another: LITILYIGFLG [KCNQ1_Y267_T265I] 0.879

* * *

# systemUnderTest: FGFR3 (UniProt P22607)
# Sequence (P22607 whole entry, looked up): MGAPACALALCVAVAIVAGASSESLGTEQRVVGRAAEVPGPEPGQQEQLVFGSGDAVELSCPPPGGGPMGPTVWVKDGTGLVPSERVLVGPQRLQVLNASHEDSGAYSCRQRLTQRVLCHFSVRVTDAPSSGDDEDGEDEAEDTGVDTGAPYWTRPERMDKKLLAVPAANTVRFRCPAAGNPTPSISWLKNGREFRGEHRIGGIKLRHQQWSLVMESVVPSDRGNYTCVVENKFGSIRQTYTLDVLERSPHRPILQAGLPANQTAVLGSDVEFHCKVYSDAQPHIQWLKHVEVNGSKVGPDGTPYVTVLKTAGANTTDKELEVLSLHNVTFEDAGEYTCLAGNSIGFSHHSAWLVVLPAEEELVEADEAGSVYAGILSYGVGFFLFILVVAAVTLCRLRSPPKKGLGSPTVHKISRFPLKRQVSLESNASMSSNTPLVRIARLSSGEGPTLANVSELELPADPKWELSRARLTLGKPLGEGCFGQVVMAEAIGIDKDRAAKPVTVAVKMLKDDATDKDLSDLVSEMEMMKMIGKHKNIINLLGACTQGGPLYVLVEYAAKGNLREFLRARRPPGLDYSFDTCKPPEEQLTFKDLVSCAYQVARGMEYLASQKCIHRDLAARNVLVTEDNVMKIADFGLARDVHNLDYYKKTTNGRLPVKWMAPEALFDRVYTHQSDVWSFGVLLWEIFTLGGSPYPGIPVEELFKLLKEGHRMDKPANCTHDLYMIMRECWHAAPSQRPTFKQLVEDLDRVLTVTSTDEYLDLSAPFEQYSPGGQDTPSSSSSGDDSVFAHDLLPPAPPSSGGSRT
# protocolDescription: phosphorylation enrichment, bacterial display (enrichment ratio); higher = better substrate or ligand; peptides without Tyr show the background
Assign a class from recorded phosphorylation enrichment; defined classes: class 1: < 0.6; class 2: ≥ 0.6 and < 0.8; class 3: ≥ 0.8

Hey, which category is TESALYGCTVL [KIAA1804_Y724] in, do you know? class 3

Can you handle SECCKYKIDNL [OSMR_Y689_P694L] next? class 2

Follow-up entry: SRDTRYLVLAV [AMH_Y195] class 2

Can you check NCFKYYMSDDI [ATRX_Y204] next? class 3

Next: RVNSAYQDKVS [ACAN_Y100] class 1

Query KKLHEYNTQFQ [PIK3R1_Y452] next class 1

Moving on to the next sequence: SRLDSYVRSLP [TRAPPC1_Y133] class 1

Same lookup for GNLLIYTEFGK [HGD_Y166] , please. class 2

Moving on to the next sequence: RKKEEYKMALY [F8_Y1990] class 1

# repeat for HNLFSYPTKFE [MYO3A_Y1396_H1400Y_YF] class 2

Now this one: VDDEIYFFRKP [PBRM1_Y1289_YF] class 3

For EEGRVYVFHLS [ITGAE_Y549_R552H_YF] then? class 2

Repeat with VTAALYGRLFE [BTD_Y536_YF] class 1

Try this sequence next: SHLSAFPALEG [CD5_Y465_Y465F] class 1

Next: RAFRHYLLKQK [SCN2A_Y1919_R1918H_YF] class 3

* * *

# systemUnderTest: Fyn (UniProt P06241)
# Sequence (P06241 whole entry, looked up): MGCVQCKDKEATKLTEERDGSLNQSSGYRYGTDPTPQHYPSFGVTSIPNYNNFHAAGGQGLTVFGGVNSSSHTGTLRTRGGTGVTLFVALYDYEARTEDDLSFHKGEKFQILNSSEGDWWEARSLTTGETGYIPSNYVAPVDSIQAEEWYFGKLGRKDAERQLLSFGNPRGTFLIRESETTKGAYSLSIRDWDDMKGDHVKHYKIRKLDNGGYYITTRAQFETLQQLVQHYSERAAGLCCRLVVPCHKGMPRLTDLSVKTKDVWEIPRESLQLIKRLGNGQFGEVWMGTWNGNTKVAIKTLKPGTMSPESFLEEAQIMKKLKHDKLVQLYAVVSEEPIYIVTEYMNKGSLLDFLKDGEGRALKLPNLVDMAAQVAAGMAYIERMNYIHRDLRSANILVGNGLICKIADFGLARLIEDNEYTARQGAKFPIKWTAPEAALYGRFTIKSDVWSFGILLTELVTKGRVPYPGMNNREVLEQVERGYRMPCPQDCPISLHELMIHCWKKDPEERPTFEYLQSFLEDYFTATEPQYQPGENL
# protocolDescription: phosphorylation enrichment, bacterial display (enrichment ratio); higher = better substrate or ligand; peptides without Tyr show the background
measurementType: phosphorylation enrichment
# answer = number (no unit)

I'm curious: which phosphorylation enrichment was measured for PTTKTYFPHFD [HBA1_Y43] tested on Fyn (UniProt P06241)? 0.545

Next record, please: VDFQPYRKHKF [TEX37_Y28_YF] 0.45

Please answer likewise for EIASHYRHLLR [ZBTB46_Y14_T11A] 0.428

And then MANYVYKAGPS [MAML2_Y515_M514V] , what is it? 0.451

// same read-out, input: MGGSLYFSFPD [HIKESHI_Y55_V54L_YF] 5.08

Now the same for LDPMVYMNDTS [PTK2B_Y834_K838T] 0.588

Next record, please: CTTIHFNYMCN [TP53_Y234_Y234F] 0.432

* * *

# systemUnderTest: EPHB1 (UniProt P54762)
# Sequence (P54762 whole entry, looked up): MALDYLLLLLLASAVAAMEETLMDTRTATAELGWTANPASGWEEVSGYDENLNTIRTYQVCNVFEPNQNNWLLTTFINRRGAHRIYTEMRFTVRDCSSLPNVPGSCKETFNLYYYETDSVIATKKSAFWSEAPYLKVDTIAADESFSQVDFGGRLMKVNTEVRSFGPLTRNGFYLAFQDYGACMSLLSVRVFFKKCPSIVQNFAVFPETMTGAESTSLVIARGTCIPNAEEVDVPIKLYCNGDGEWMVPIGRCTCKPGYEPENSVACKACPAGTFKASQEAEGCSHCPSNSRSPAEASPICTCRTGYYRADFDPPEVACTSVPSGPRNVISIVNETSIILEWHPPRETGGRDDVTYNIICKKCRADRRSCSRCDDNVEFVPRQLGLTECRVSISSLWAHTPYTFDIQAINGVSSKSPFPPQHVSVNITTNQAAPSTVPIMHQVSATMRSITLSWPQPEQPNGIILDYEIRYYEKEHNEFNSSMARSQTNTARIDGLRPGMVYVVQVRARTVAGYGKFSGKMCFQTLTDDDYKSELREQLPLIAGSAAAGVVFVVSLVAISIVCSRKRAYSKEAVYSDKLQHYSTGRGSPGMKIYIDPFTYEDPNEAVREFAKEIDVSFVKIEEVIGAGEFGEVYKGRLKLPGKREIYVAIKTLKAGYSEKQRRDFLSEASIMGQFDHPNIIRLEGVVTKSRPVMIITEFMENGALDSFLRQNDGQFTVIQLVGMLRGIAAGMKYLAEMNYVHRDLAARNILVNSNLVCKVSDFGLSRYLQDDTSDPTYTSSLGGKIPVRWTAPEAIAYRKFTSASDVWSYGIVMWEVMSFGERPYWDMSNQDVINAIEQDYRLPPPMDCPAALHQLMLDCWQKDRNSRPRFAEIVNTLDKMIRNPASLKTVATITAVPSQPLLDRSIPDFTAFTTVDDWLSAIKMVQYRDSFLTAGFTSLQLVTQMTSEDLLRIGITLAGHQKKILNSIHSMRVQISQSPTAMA
# protocolDescription: phosphorylation enrichment, bacterial display (enrichment ratio); higher = better substrate or ligand; peptides without Tyr show the background
measurementType: phosphorylation enrichment
Could you respond with only the numeric value?

Could you tell me which phosphorylation enrichment is on file for HNLDYYKKTTN [FGFR3_Y648] ? 0.696

Another sequence to check: REQREYLEQLN [CCDC88B_Y1277_D1279E] 0.54

// repeat for DKATEYIQYMR [MAX_Y70] and report 0.448
